Target chain: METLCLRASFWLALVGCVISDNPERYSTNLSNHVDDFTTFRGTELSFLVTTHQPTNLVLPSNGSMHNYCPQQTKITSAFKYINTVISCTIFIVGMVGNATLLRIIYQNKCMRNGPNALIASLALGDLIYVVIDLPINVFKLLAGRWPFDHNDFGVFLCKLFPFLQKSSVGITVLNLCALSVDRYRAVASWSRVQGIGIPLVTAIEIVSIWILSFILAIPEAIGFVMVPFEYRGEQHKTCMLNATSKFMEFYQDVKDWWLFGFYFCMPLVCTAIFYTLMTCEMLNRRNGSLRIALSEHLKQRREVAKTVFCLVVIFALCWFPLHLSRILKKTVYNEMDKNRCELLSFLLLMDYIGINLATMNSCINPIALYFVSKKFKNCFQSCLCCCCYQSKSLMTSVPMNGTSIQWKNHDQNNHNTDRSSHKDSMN
pIC50: −log10 of the molar value.
Target or system the protein given by its sequence; metric pIC50; compiled from varied reports.
Kind request: treat 8 as inclusive, so pIC50 at 8 or higher is true (1), anything lower is false (0).

The examples below pair each entry with its known result.
COc1ccc([C@H]2[C@H](C(=O)O)[C@@H](c3ccc4c(c3)OCO4)CN2CC(=O)NCC(c2ccccc2)c2ccccc2)cc1    false (0)
CC(=O)c1cc(C)cc(C)c1NC(=O)c1sc(C)cc1S(=O)(=O)Nc1onc(C)c1Cl    true (1)
CCCc1cc2c(cc1OCc1sccc1S(=O)(=O)Nc1onc(C)c1Br)OCO2    false (0)

INPUT: In plain terms: is recorded pIC50 at least 8 for Cc1cc(C)c(NC(=O)c2sccc2S(=O)(=O)Nc2onc(C)c2Cl)c(C(=O)C2CCCCC2)c1 ?
OUTPUT: true (1)

INPUT: In plain terms: is recorded pIC50 at least 8 for CC(C)c1ccc(S(=O)(=O)NC(=O)C(c2ccc3c(c2)OCO3)c2cn(C)c3cc(CN)ccc23)cc1 (centres undefined) ?
OUTPUT: false (0)

INPUT: In plain terms: is recorded pIC50 at least 8 for Cc1cc(C)c(NC(=O)c2sccc2S(=O)(=O)Nc2onc(C)c2Cl)c(C)c1O ?
OUTPUT: true (1)

INPUT: In plain terms: is recorded pIC50 at least 8 for COc1ccc([C@@H]2c3nc(NC(C)C)ccc3[C@H](c3ccc4c(c3)OCO4)[C@H]2C(=O)O)c(OC)c1 ?
OUTPUT: true (1)

INPUT: In plain terms: is recorded pIC50 at least 8 for Cc1cc(NC(=O)c2sccc2S(=O)(=O)Nc2onc(C)c2Cl)no1 ?
OUTPUT: false (0)

INPUT: In plain terms: is recorded pIC50 at least 8 for COc1cc(OC)nc(O[C@H](C(=O)O)C(OC)(c2ccccc2)c2ccccc2)n1 ?
OUTPUT: true (1)

INPUT: In plain terms: is recorded pIC50 at least 8 for COc1ccc([C@H]2[C@H](C(=O)O)[C@@H](c3ccc4c(c3)OCO4)CN2CC(=O)Nc2cc(C)ccc2C)cc1 ?
OUTPUT: false (0)
